Data origin, for the record: paper PMC6696415

- Method notes: In vitro supersaturation under non-sink conditions (µDISS Profiler, tenfold supersaturation ratio, spray-dried solids)
- Type: physicochemical
- Conditions: aged and/or crystallized spray-dried (SD Tn, stored at 75% RH); tenfold supersaturation ratio, phosphate buffer pH 6.5, 37 °C, 60 min
Here the recorded RAUC (AUC ratio spray-dried/crystalline) is given for each entry.
Reported metric: RAUC (AUC ratio spray-dried/crystalline)

molecule="CC(=O)N1CCN(c2ccc(OCC3COC(Cn4ccnc4)(c4ccc(Cl)cc4Cl)O3)cc2)CC1 (centres unmarked)" reported_metric="RAUC (AUC ratio spray-dried/crystalline)" experimental_value=0.8
molecule="Cc1ccccc1N1C(=O)c2cc(S(N)(=O)=O)c(Cl)cc2NC1C (centres unmarked)" reported_metric="RAUC (AUC ratio spray-dried/crystalline)" experimental_value=1.8
molecule=Nc1ccc(S(=O)(=O)Nc2nccs2)cc1 reported_metric="RAUC (AUC ratio spray-dried/crystalline)" experimental_value=1.5
molecule="COc1ccc(Cl)cc1C(=O)NCCc1ccc(S(=O)(=O)NC(=O)NC2CCCCC2)cc1 [Glibenclamide, glibenclamide]" reported_metric="RAUC (AUC ratio spray-dried/crystalline)" experimental_value=4.4
molecule="CC1Cc2ccccc2N1NC(=O)c1ccc(Cl)c(S(N)(=O)=O)c1 (centres unmarked) [Indapamide, indapamide]" reported_metric="RAUC (AUC ratio spray-dried/crystalline)" experimental_value=2.1

====

Here the recorded Time to Complete Crystallization is given for each entry.
- Method notes: Physical stability study of spray-dried amorphous APIs stored at 75% RH, 25 °C (solid state by Raman, MDSC, PXRD)
- Type: physicochemical
- Conditions: spray-dried amorphous API, 75% RH at 25 °C, up to 168 days
Reported metric: Time to Complete Crystallization

molecule="Cc1ccccc1N1C(=O)c2cc(S(N)(=O)=O)c(Cl)cc2NC1C (stereo not drawn) [Metolazone, metolazone]" experimental_value=">168 days"
molecule="COc1ccc(Cl)cc1C(=O)NCCc1ccc(S(=O)(=O)NC(=O)NC2CCCCC2)cc1 [Glibenclamide, glibenclamide]" experimental_value=">168 days"
molecule="CC1Cc2ccccc2N1NC(=O)c1ccc(Cl)c(S(N)(=O)=O)c1 (stereo not drawn) [Indapamide, indapamide]" experimental_value=">168 days"
